Record type: AC50 measurement. Applies to: Growth hormone secretagogue receptor type 1 (Homo sapiens, UniProt Q92847)

>  <Compound>
CC#CCn1c(N2CCC[C@@H](N)C2)nc2c1c(=O)n(Cc1nc(C)c3ccccc3n1)c(=O)n2C

>  <AC50>
5.2 µM

$$$$
>  <Compound>
Clc1ccc(C(Cn2ccnc2)OCc2ccc(Sc3ccccc3)cc2)c(Cl)c1 (stereo unspecified)

>  <AC50>
> 30 µM

$$$$
>  <Compound>
CNC[C@H](O)c1cccc(O)c1

>  <AC50>
> 30 µM

$$$$
>  <Compound>
NC(=O)CCC/N=C(\c1ccc(Cl)cc1)c1cc(F)ccc1O [PROGABIDE]

>  <AC50>
> 10 µM

$$$$
>  <Compound>
Cc1ccc2c(-c3ccccc3)nc(=O)n(C(C)C)c2c1

>  <AC50>
> 30 µM

$$$$

Fill in: Growth hormone secretagogue receptor type 1 (Homo sapiens, UniProt Q92847) AC50 for COC1=C(OC)C(=O)C(CCCCCCCCCCO)=C(C)C1=O = > 30 µM

Fill in: Growth hormone secretagogue receptor type 1 (Homo sapiens, UniProt Q92847) AC50 for Cn1c(=O)c2[nH]cnc2n(C)c1=O = > 30 µM

Fill in: Growth hormone secretagogue receptor type 1 (Homo sapiens, UniProt Q92847) AC50 for O=C(O)CSCC(=O)NC1CCSC1=O (stereo unspecified) = > 30 µM

---

Record type: AC50 measurement. Applies to: Estrogen receptor (Homo sapiens, UniProt P03372)

Before answering, review these 4 worked examples.
>  <Compound>
CNC(=O)Oc1ccc2c(c1)[C@]1(C)CCN(C)[C@@H]1N2C

>  <AC50>
> 30 µM

$$$$
>  <Compound>
C[C@@H]1C[C@H]2[C@@H]3C[C@H](F)C4=CC(=O)C=C[C@]4(C)[C@@]3(Cl)[C@@H](O)C[C@]2(C)[C@H]1C(=O)COC(=O)C(C)(C)C [CLOCORTOLONE PIVALATE]

>  <AC50>
> 30 µM

$$$$
>  <Compound>
CCC(=O)O[C@@H](O[P@](=O)(CCCCc1ccccc1)CC(=O)N1C[C@H](C2CCCCC2)C[C@H]1C(=O)O)C(C)C

>  <AC50>
> 30 µM

$$$$
>  <Compound>
CCOC(=O)[C@H](CCc1ccccc1)N[C@H]1CS[C@H](c2cccs2)CN(CC(=O)O)C1=O

>  <AC50>
> 30 µM

$$$$

Fill in: Estrogen receptor (Homo sapiens, UniProt P03372) AC50 for CC1(C)O[C@@H]2[C@@H](CO[C@@]3(COS(N)(=O)=O)OC(C)(C)O[C@@H]23)O1 [TOPIRAMATE] = > 30 µM

Fill in: Estrogen receptor (Homo sapiens, UniProt P03372) AC50 for O=C(Nc1nc(-c2cc(Cl)cs2)c(N2CCN(C3CCCCC3)CC2)s1)c1cnc(N2CCC(C(=O)O)CC2)c(Cl)c1 = > 30 µM

Fill in: Estrogen receptor (Homo sapiens, UniProt P03372) AC50 for NCCc1ccc(O)cc1 = > 30 µM

---

- Target Or Test System: Voltage-dependent L-type calcium channel subunit alpha-1C (Rattus norvegicus); further: assay procedure not described here
- Sequence (P22002 whole entry): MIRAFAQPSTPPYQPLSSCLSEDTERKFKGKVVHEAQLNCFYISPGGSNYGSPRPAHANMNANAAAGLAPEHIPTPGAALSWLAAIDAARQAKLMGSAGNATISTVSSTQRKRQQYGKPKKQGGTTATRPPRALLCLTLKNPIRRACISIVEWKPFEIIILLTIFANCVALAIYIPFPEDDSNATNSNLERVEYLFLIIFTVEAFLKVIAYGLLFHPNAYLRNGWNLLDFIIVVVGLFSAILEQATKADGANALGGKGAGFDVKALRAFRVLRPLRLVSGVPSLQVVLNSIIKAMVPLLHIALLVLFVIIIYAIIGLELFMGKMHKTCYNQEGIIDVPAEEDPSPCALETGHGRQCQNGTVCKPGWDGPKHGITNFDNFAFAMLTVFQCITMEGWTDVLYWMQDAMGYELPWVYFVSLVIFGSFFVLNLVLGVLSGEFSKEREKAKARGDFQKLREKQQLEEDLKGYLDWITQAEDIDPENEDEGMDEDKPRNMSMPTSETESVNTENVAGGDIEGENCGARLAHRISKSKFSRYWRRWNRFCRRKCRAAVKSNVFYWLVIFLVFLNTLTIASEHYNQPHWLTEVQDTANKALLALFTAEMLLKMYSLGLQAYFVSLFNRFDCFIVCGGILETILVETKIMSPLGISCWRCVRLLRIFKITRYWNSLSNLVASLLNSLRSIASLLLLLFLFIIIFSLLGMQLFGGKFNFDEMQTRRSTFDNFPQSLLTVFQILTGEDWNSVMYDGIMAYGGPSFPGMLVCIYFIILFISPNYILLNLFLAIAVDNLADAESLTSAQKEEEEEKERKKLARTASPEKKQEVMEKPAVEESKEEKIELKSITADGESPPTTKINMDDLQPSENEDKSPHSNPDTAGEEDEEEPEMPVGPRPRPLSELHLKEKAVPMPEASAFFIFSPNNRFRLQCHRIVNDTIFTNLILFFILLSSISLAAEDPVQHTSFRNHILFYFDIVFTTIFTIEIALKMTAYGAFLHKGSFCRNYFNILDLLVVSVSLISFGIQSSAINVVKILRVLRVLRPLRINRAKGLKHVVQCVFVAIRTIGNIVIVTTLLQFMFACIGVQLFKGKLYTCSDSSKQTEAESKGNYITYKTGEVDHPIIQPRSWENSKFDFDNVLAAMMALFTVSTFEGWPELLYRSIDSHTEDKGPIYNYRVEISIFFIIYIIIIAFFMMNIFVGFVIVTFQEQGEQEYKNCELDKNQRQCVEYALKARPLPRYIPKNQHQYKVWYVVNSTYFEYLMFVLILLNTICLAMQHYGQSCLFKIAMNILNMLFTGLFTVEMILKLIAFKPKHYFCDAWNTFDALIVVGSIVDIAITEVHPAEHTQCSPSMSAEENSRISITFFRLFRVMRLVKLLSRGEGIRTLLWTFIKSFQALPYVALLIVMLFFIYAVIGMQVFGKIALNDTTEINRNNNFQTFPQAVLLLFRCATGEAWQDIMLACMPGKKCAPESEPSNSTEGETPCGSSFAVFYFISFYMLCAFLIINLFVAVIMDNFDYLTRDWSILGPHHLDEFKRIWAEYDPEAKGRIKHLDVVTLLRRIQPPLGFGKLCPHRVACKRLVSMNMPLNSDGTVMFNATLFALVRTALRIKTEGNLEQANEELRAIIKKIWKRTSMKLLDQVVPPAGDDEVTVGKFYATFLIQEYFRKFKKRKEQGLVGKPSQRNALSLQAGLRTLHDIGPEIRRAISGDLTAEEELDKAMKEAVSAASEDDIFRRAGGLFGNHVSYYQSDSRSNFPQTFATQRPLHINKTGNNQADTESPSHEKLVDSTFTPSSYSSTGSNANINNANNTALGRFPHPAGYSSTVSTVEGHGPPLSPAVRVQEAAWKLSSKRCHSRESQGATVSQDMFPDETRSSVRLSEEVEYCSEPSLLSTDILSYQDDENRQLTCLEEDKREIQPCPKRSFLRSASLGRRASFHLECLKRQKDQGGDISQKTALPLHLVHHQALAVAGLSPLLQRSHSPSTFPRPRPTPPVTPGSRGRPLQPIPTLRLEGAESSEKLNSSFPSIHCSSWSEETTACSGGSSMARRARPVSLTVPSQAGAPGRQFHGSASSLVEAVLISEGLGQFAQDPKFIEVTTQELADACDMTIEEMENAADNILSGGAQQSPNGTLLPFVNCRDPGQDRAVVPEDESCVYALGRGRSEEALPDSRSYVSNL
- Type: functional
Assay Readout: AC50

>  <Compound>
COc1ccc(Cc2nccc3cc(OC)c(OC)cc23)cc1OC

>  <Result Value>
> 30 µM

$$$$

Fill in: Voltage-dependent L-type calcium channel subunit alpha-1C (Rattus norvegicus) AC50 for NS(=O)(=O)c1cc2c(cc1C(F)(F)F)NC(Cc1ccccc1)NS2(=O)=O (stereo not given) [BENDROFLUMETHIAZIDE] = > 10 µM

Fill in: Voltage-dependent L-type calcium channel subunit alpha-1C (Rattus norvegicus) AC50 for CC(C)c1cc2c(cc1S(=O)(=O)O)[C@@]1(C)CCC[C@@](C)(C(=O)O)[C@@H]1CC2 = > 30 µM

Fill in: Voltage-dependent L-type calcium channel subunit alpha-1C (Rattus norvegicus) AC50 for Clc1ccc2c(c1)C(c1ccccc1)=NCc1nncn1-2 = > 10 µM

Fill in: Voltage-dependent L-type calcium channel subunit alpha-1C (Rattus norvegicus) AC50 for O=c1oc2ccccc2c(O)c1Cc1c(O)c2ccccc2oc1=O = > 10 µM
